experiment: Caco-2 permeability of ADC payload; type: in vitro ADME; settings: human, Caco-2; payload, B-A/A-B; read-out: Eflux ratio
Result Type: efflux ratio at 2 h, 10 μM
API doc: respond with a numeric literal and nothing else, no unit.

Name the reported efflux ratio at 2 h, 10 μM value associated with the molecule CC[C@H](O)[C@@H](C)[C@H]1O[C@@H]1C[C@H](C)/C=C/C=C(\C)[C@H]1OC(=O)C[C@H](O)CC[C@@](C)(OC(=O)N2CCNCC2)[C@@H](OC(C)=O)/C=C/[C@@H]1C
19.1

Suppose we examine the molecule CC[C@H](O)[C@@H](C)C1OC1C[C@@](C)(O)/C=C/C=C(\C)[C@H]1OC(=O)C[C@H](O)CC[C@@](C)(OC)[C@@H](OC(=O)N2CCNCC2)/C=C/[C@@H]1C (stereo in doubt) [D1] ; what efflux ratio at 2 h, 10 μM value has been reported?
14.6

Reported efflux ratio at 2 h, 10 μM, molecule CC[C@H](O)[C@@H](C)[C@H]1O[C@@H]1C[C@@](C)(O)/C=C/C=C(\C)[C@H]1OC(=O)C[C@H](O)CC[C@@](C)(OC)[C@@H](OC(=O)N2CCN(CCCC(=O)O)CC2)/C=C/[C@@H]1C : ____
2.55

Item CC[C@H](O)[C@@H](C)[C@H]1O[C@@H]1C[C@@](C)(O)/C=C/C=C(\C)[C@H]1OC(=O)C[C@H](O)CC[C@@](C)(OC(=O)N2CCNCC2)[C@@H](OC(C)=O)/C=C/[C@@H]1C has what recorded efflux ratio at 2 h, 10 μM?
15.9

Need efflux ratio at 2 h, 10 μM, item C/C(=C\c1cc(F)cc(N2CCN(C(=O)Cn3cccn3)CC2)c1)[C@H]1OC(=O)C[C@H](O)CC[C@H](C)[C@@H](OC(=O)N2CCN(C)CC2)/C=C/[C@@H]1C
2.58

Given the entry CC(=O)N1CCC(n2nnc3c(F)cc(/C=C(\C)[C@H]4OC(=O)C[C@H](O)CC[C@H](C)[C@@H](OC(=O)N5CCNCC5)/C=C/[C@@H]4C)cc32)CC1 , report its measured efflux ratio at 2 h, 10 μM.
202

Name the recorded efflux ratio at 2 h, 10 μM for C/C(=C\c1cc(F)cc(N2CCOCC2)c1)[C@H]1OC(=O)C[C@H](O)CC[C@H](C)[C@@H](OC(=O)N2CCN(C)CC2)/C=C/[C@@H]1C .
0.896

I have this molecule here, C/C(=C\c1cc(F)cc(N2CCN(C(=O)Cn3cccn3)CC2)c1)[C@H]1OC(=O)C[C@H](O)CC[C@H](C)[C@@H](OC(=O)N2CCNCC2)/C=C/[C@@H]1C , and I need its recorded efflux ratio at 2 h, 10 μM.
32.4

Would you kindly share the measured efflux ratio at 2 h, 10 μM for CC[C@H](O)[C@@H](C)[C@H]1O[C@@H]1C[C@H](C)/C=C/C=C(\C)[C@H]1OC(=O)C[C@H](O)CC[C@@](C)(OC(C)=O)[C@@H](OC(=O)N2CCNCC2)/C=C/[C@@H]1C ?
14

Please report the recorded efflux ratio at 2 h, 10 μM for CC[C@H](O)[C@@H](C)[C@H]1O[C@@H]1C[C@@](C)(O)/C=C/C=C(\C)[C@H]1OC(=O)C[C@H](O)CC[C@@](C)(OC)[C@@H](OC(=O)N2CCN(C)CC2)/C=C/[C@@H]1C [D2] .
22.8

====

test system: MOLP8 cells; assay: Cell viability, CD138-expressing MOLP8; assay type: cell-based; details: unconjugated payload of the ADC
Record form. Attribute: LD50 (nM) (payload). Fill in for each entry.
Output spec: scalar in nM, unitless text.

What reported LD50 (nM) (payload) corresponds to CC[C@H](O)[C@@H](C)[C@H]1O[C@@H]1C[C@@](C)(O)/C=C/C=C(\C)[C@H]1OC(=O)C[C@H](O)CC[C@@](C)(OC)[C@@H](OC(=O)N2CCN(C)CC2)/C=C/[C@@H]1C [D2] on MOLP8 cells?
5.035

Provide the documented LD50 (nM) (payload) with MOLP8 cells as the system for CC(=O)N1CCC(n2nnc3c(F)cc(/C=C(\C)[C@H]4OC(=O)C[C@H](O)CC[C@H](C)[C@@H](OC(=O)N5CCNCC5)/C=C/[C@@H]4C)cc32)CC1 [D14]
8.5

====

Give measured LD50 (nM) (payload) for each item. Keep answers brief.
tested on: MOLP8 cells; test: Cell viability, CD138-expressing MOLP8; assay type: cell-based; settings: unconjugated payload of the ADC
Numeric answer only, unit nM assumed.

Given the entry CC[C@H](O)[C@@H](C)[C@H]1O[C@@H]1C[C@H](C)/C=C/C=C(\C)[C@H]1OC(=O)C[C@H](O)CC[C@@](C)(OC)[C@@H](OC(=O)N2CCN(C)CC2)/C=C/[C@@H]1C [D19] , report its measured LD50 (nM) (payload).
4.58

Need LD50 (nM) (payload), item CC[C@H](O)[C@@H](C)C1OC1C[C@@](C)(O)/C=C/C=C(\C)[C@H]1OC(=O)C[C@H](O)CC[C@@](C)(OC)[C@@H](OC(=O)N2CCNCC2)/C=C/[C@@H]1C (stereo in doubt) [D1]
25.712

So what's the measured LD50 (nM) (payload) for this one? CC[C@H](O)[C@@H](C)C1OC1C[C@@](C)(O)/C=C/C=C(\C)[C@H]1OC(=O)C[C@H](O)CC[C@@](C)(OC(C)=O)[C@@H](OC(=O)N2CCNCC2)/C=C/[C@@H]1C (stereo in doubt) [D4]
12.99

// lookup LD50 (nM) (payload) for CC(=O)N1CCC(n2nnc3c(F)cc(/C=C(\C)[C@H]4OC(=O)C[C@H](O)CC[C@H](C)[C@@H](OC(=O)N5CCN(C)CC5)/C=C/[C@@H]4C)cc32)CC1 [D15]
9.178

====

molecular target: SF3b complex (Homo sapiens, UniProt O75533+Q7RTV0); construct: The beads were suspended and added to the prepared nuclear extracts; test: SF3B1 binding / scintillation proximity assay (SPA); settings: payload of the ADC; read-out: SPA-AT S GMean IC50 (nM) SF381 (WT) HELA.2
Result Type: IC50 (nM)
Your answer is read as nM, so omit the unit and give the number.

Find the measured IC50: item CC[C@H](O)[C@@H](C)[C@H]1O[C@@H]1C[C@@](C)(O)/C=C/C=C(\C)[C@H]1OC(=O)C[C@H](O)CC[C@@](C)(OC)[C@@H](OC(=O)N2CCN(CCCC(=O)O)CC2)/C=C/[C@@H]1C [D25] , target or system SF3b complex (Homo sapiens, UniProt O75533+Q7RTV0).
14.6

====

assay: Chemical stability of ADC payload, pH 5.5 buffer; conditions: Table 26; corresponding payload, pH 5.5, 37C, t1/2
Result Type: pH 5.5 Stability (t1/2, 37C)
Lab note: record just the number, no unit beside it.

Return reported pH 5.5 Stability (t1/2, 37C); argument: C/C(=C\c1cccc(S(=O)(=O)N2CCCC2)c1)[C@H]1OC(=O)C[C@H](O)CC[C@H](C)[C@@H](OC(=O)N2CCN(C)CC2)/C=C/[C@@H]1C
7

Can you share its pH 5.5 Stability (t1/2, 37C)? I mean this compound: CC[C@H](O)[C@@H](C)[C@H]1O[C@@H]1C[C@@](C)(O)/C=C/C=C(\C)[C@H]1OC(=O)C[C@H](O)CC[C@@](C)(OC)[C@@H](OC(=O)N2CCN(C)CC2)/C=C/[C@@H]1C [D2]
4

Any idea what its pH 5.5 Stability (t1/2, 37C) is? The compound is CC(=O)N1CCC(n2nnc3c(F)cc(/C=C(\C)[C@H]4OC(=O)C[C@H](O)CC[C@H](C)[C@@H](OC(=O)N5CCN(C)CC5)/C=C/[C@@H]4C)cc32)CC1
7

So what does the record say about pH 5.5 Stability (t1/2, 37C) for CC[C@H](O)[C@@H](C)[C@H]1O[C@@H]1C[C@@](C)(O)/C=C/C=C(\C)[C@H]1OC(=O)C[C@H](O)CC[C@@](C)(OC)[C@@H](OC(=O)N2CCN(CCCC(=O)O)CC2)/C=C/[C@@H]1C ?
3.4

Which measured pH 5.5 Stability (t1/2, 37C) value corresponds to CC[C@H](O)[C@@H](C)C1OC1C[C@@](C)(O)/C=C/C=C(\C)[C@H]1OC(=O)C[C@H](O)CC[C@@](C)(OC(C)=O)[C@@H](OC(=O)N2CCNCC2)/C=C/[C@@H]1C (stereo in doubt) ?
4.5

May I ask what pH 5.5 Stability (t1/2, 37C) has been recorded for CC[C@H](O)[C@@H](C)[C@H]1O[C@@H]1C[C@H](C)/C=C/C=C(\C)[C@H]1OC(=O)C[C@H](O)CC[C@@](C)(OC)[C@@H](OC(=O)N2CCN(C)CC2)/C=C/[C@@H]1C ?
0.8

Entry C/C(=C\c1cc(F)cc(N2CCN(C(=O)Cn3cccn3)CC2)c1)[C@H]1OC(=O)C[C@H](O)CC[C@H](C)[C@@H](OC(=O)N2CCNCC2)/C=C/[C@@H]1C has what pH 5.5 Stability (t1/2, 37C)?
7

Look up pH 5.5 Stability (t1/2, 37C): C/C(=C\c1cc(F)cc(N2CCOCC2)c1)[C@H]1OC(=O)C[C@H](O)CC[C@H](C)[C@@H](OC(=O)N2CCN(C)CC2)/C=C/[C@@H]1C
7

Values compiled from patent US12172986B2.
